Every entry's value here was drawn from paper PMC9229817.

- Tested on: HepG2
- Test: MTS assay, HepG2 hepatocellular carcinoma cells
- Type: cell-based
- Condition Set: MTS, 24 h treatment
Parameter Measured: IC50 (µM)

Molecule: Cc1onc(-c2ccccc2)c1C(=O)Nc1ccc(-c2cccs2)cc1 [2f]
IC50 / µM: 38.4
//
Molecule: Cc1onc(-c2ccccc2)c1C(=O)Nc1cccc(C(F)(F)F)c1 [2b]
IC50 / µM: 53.6

---

- System: Colo205
- Test: MTS assay, Colo205 colon adenocarcinoma cells
- Assay type: cell-based
- Condition Set: MTS, 24 h treatment
pIC50: −log10 of the molar value.
Parameter Measured: pIC50

P: COc1cc(NC(=O)c2c(-c3ccccc3)noc2C)c(OC)cc1Cl
Q: Cc1onc(-c2ccccc2)c1C(=O)Nc1ccc(-c2cccs2)cc1
Prompt: Which one would you say has the larger pIC50 value: P , or Q ? Respond using the label that marks the chosen record.
Response: P
(P: 5.04, Q: 4.12)

---

- Tested on: B16F1
- Test: MTS assay, B16F1 melanoma cells
- Format: cell-based
- Condition Set: compound versus its nano-emulgel at 1, 0.5, 0.1, 0.05, and 0.01 µM
Parameter Measured: IC50 (nM)
I only need the number, in nM, no unit after it.

Prompt: Can you share its IC50? I mean this compound: "Cc1onc(-c2ccccc2)c1C(=O)Nc1ccc(OC(F)(F)F)cc1"
Response: 79

---

- Test system: B16F1, Colo205, HepG2, and HeLa cancer cell lines
- Test: MTS assay, IC50 range over a panel of cancer cell lines
- Assay type: cell-based
- Condition Set: range over five cancer cell lines; read-out: IC50 range on five cancer cell lines
pIC50: −log10 of the molar value.
Parameter Measured: pIC50

Prompt: Tell me reported pIC50 for "COc1cc(NC(=O)c2c(-c3ccccc3)noc2C)c(OC)cc1Cl" , tested with B16F1, Colo205, HepG2, and HeLa cancer cell lines.
Response: 3.89 to 5.12
